- assayInfo: S. cerevisiae RM11-1a growth modifiers, primary screen, strain RM11-1a, OD600, basal, 24 h (AID 1177);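 note: cultures grown under basal conditions with no added stressor; test concentration not given here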
- conditionLabel: OD600, 24 h, called active from +8 up or from −8 down
The source made the active and inactive calls.
Answer with one of the outcomes given here: 1.0 for active, 0.0 for inactive

- compound: "CCOC(=O)C[C@H]1[C@H](OC(=O)Cc2ccc3c(c2)OCO3)[C@@H](NC(=O)c2ccc3ccccc3c2)c2cc(OCCCO)ccc2N1C(=O)c1ccc2ccccc2n1"
  labelClass: 0.0
- compound: "C=C1C=C(Br)C2(OCCCO2)[C@H]2OC12 (stereo partly drawn)"
  labelClass: 0.0
- compound: "CC(C)(C)OC(=O)CC[C@@]1(C(=O)NCc2ccccc2)N=C(c2ccc(OCCCO)cc2)O[C@@H]1c1ccccc1CN=[N+]=[N-]"
  labelClass: 0.0
- compound: "C=CCNC(=O)[C@H]1[C@@H]2C(=O)O[C@@H](c3ccccc3)[C@@H](c3ccccc3)N2[C@@H](c2ccc(OCCO)cc2)[C@]12C(=O)Nc1ccc(C#CCCO)cc12"
  labelClass: 0.0
- compound: "COC(=O)C(CC#Cc1ccc2c(c1)[C@]1(C(=O)N2)[C@H](C(=O)O)[C@H]2C(=O)O[C@H](c3ccccc3)[C@H](c3ccccc3)N2[C@@H]1c1ccc(OCCO)cc1)C(=O)OC"
  labelClass: 0.0
- compound: "CC(C)(C)OC(=O)CC[C@@]12N=C(c3ccc(OCCCO)cc3)O[C@@H]1c1ccccc1CN(Cc1ccccc1)C2=O"
  labelClass: 0.0

Query: Lab log entry: O=C1O[C@H](c2ccccc2)[C@H](c2ccccc2)N2[C@H]1[C@@H](C(=O)NC[C@H](O)c1ccccc1)[C@]1(C(=O)Nc3ccc(C#CC4(O)CCCCCC4)cc31)[C@H]2c1ccc(O)cc1 — outcome as called in the assay?
Response: 0.0

Query: Lab log entry: CC(C)[C@@H](C(=O)O)n1cc(-c2ccccn2)nn1 — outcome as called in the assay?
Response: 0.0

Query: Lab log entry: Cc1ccc(S[C@]2(C(=O)NC3CC3)CC(=O)N(Cc3ccccc3C(F)(F)F)[C@@H]2c2ccc(CO)cc2I)cc1 — outcome as called in the assay?
Response: 0.0

Query: Lab log entry: COc1c(C)cc(-c2cc3c(c(CCc4ccccc4)n2)[Si](C(C)C)(C(C)C)OC3)cc1C — outcome as called in the assay?
Response: 0.0

Query: Lab log entry: CC(C)[Si](C#C[Si](C(C)C)(C(C)C)C(C)C)(O[C@H](C)c1cn([C@H](C)c2ccccc2)nn1)C(C)C — outcome as called in the assay?
Response: 0.0

Query: Lab log entry: C=C(COC)C(=O)CC[C@@H](OC(=O)c1ccccc1-c1ccccc1C(=O)O)c1cccc(OCCO)c1 — outcome as called in the assay?
Response: 0.0

Query: Lab log entry: CC(C)C(=C=CC[C@H](O)c1ccc(OCCO)cc1)C[C@H](O)COCc1ccccc1 — outcome as called in the assay?
Response: 0.0

Query: Lab log entry: C=C[C@H](OC)[C@@H](OC(=O)Nc1ccc(OC)cc1)c1ccc(OC)c(O)c1 — outcome as called in the assay?
Response: 0.0
